Consider the following molecules; for each one, report its EC50.
# ASSAY TARGET: human MC4R (Homo sapiens, UniProt P32245)
# Construct: expressed in transfected cells
# Sequence (P32245 whole entry): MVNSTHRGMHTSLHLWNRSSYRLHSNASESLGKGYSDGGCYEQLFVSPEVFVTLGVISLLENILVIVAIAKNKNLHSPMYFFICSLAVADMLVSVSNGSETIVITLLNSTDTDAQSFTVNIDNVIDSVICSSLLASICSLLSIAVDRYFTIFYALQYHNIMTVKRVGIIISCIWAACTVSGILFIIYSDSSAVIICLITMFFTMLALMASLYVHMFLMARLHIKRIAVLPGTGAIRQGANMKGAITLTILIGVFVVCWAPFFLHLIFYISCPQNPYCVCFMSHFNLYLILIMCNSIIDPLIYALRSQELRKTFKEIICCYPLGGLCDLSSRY
# PROTOCOL: Functional cAMP assay (CisBio HTRF) in BHK cells expressing human MC4R
# Type: cell-based
Positions of bridges follow the written chain, without caps; N, C: chain ends. Non-standard residues stand in square brackets, D forms with d. Residues, ends and D or L forms follow the SMILES beside them. Orn = NCCC[C@H](N)C(=O)O; Thz = O=C(O)[C@@H]1CSCN1; Api = NC1(C(=O)O)CCNCC1
Express it in nM; write the number only.

Query: Reported EC50, molecule C[C@@H]1NC(=O)[C@@H]2CSSC[C@H](NC(=O)[C@H](CCCNC(=N)N)NC(=O)[C@H](CCCN)NC(=O)[C@H](CCC(=O)O)NC(=O)[C@H](CCCN)NC1=O)C(=O)N1CSC[C@H]1C(=O)N[C@@H](Cc1c[nH]cn1)C(=O)N[C@H](Cc1ccccc1)C(=O)N[C@@H](Cc1c[nH]cn1)C(=O)N[C@@H](Cc1c[nH]c3ccccc13)C(=O)N2 [Chem. 119] (cyclo(A[Orn]E[Orn]RC[Thz]H[dF]HWC); disulfide 6-12) : ____
Result: 0.06

Query: Bench note: what EC50 did C[C@@H]1NC(=O)[C@@H]2CSSC[C@H](NC(=O)[C@H](Cc3c[nH]c4ccccc34)NC(=O)[C@H](CCCNC(=N)N)NC(=O)[C@@H](Cc3ccccc3)NC(=O)[C@H](Cc3c[nH]cn3)NC1=O)C(=O)N[C@@H](C)C(=O)N[C@@H](CCC(=O)O)C(=O)N[C@@H](CCC(=O)O)C(=O)N[C@@H](CCC(=O)O)C(=O)N[C@@H](Cc1c[nH]c3ccccc13)C(=O)N2 [Chem. 44] (cyclo(AEEEWCAH[dF]RWC); disulfide 6-12) show?
Result: 1.53

Query: Look at this molecule and give its reported EC50. C[C@@H]1NC(=O)[C@H](C)NC(=O)[C@@H]2CSSC[C@H](NC(=O)[C@H](CCCNC(=N)N)NC(=O)[C@H](C)NC(=O)[C@@H](C)NC1=O)C(=O)N[C@@H](C)C(=O)N[C@@H](Cc1c[nH]cn1)C(=O)N[C@H](Cc1ccccc1)C(=O)N[C@@H](CCCNC(=N)N)C(=O)N[C@@H](Cc1c[nH]c3ccccc13)C(=O)N2 [Chem. 90] (cyclo(AA[dA]ARCAH[dF]RWC); disulfide 6-12)
Result: 0.01

Query: # lookup: EC50 of C[C@@H]1NC(=O)[C@@H]2CSSC[C@H](NC(=O)[C@H](Cc3c[nH]c4ccccc34)NC(=O)[C@H](CCCNC(=N)N)NC(=O)[C@H](Cc3ccccc3)NC(=O)[C@H](Cc3c[nH]cn3)NC1=O)C(=O)N[C@@H](C)C(=O)N[C@@H](Cc1c[nH]cn1)C(=O)N[C@@H](Cc1ccccc1)C(=O)N[C@@H](CCCNC(=N)N)C(=O)N[C@@H](Cc1c[nH]c3ccccc13)C(=O)N2
Result: 0.44

Query: Report EC50 for N=C(N)NCCC[C@@H]1NC(=O)[C@@H](Cc2ccccc2)NC(=O)[C@H](Cc2c[nH]cn2)NC(=O)C2(CCNCC2)NC(=O)[C@@H]2CSSC[C@H](NC(=O)[C@H](Cc3c[nH]c4ccccc34)NC1=O)C(=O)NC1(CCNCC1)C(=O)N[C@@H](Cc1c[nH]cn1)C(=O)N[C@H](Cc1ccccc1)C(=O)N[C@@H](CCCNC(=N)N)C(=O)N[C@@H](Cc1c[nH]c3ccccc13)C(=O)N2 [Chem. 47] (cyclo([Api]H[dF]RWC[Api]H[dF]RWC); disulfide 6-12) please.
Result: 0.12

* * *

Would you mind telling me the reported MC1R/MC4R cAMP EC50 ratio of each entry?
# ASSAY TARGET: human MC4R (Homo sapiens)
# Construct: expressed in transfected cells
# PROTOCOL: Functional cAMP assay (CisBio HTRF) in BHK cells expressing human MC4R
# Type: cell-based
# STATED CONDITIONS: MC1R cAMP EC50 divided by MC4R cAMP EC50
Positions of bridges follow the written chain, without caps; N, C: chain ends. Non-standard residues stand in square brackets, D forms with d. Residues, ends and D or L forms follow the SMILES beside them. Api = NC1(C(=O)O)CCNCC1
// response body must contain only the number

Query: Report MC1R/MC4R cAMP EC50 ratio for N=C(N)NCCC[C@@H]1NC(=O)[C@@H](Cc2ccccc2)NC(=O)[C@H](Cc2c[nH]cn2)NC(=O)C2(CCNCC2)NC(=O)[C@@H]2CSSC[C@H](NC(=O)[C@H](Cc3c[nH]c4ccccc34)NC1=O)C(=O)NC1(CCNCC1)C(=O)N[C@@H](Cc1c[nH]cn1)C(=O)N[C@H](Cc1ccccc1)C(=O)N[C@@H](CCCNC(=N)N)C(=O)N[C@@H](Cc1c[nH]c3ccccc13)C(=O)N2 [Chem. 47] (cyclo([Api]H[dF]RWC[Api]H[dF]RWC); disulfide 6-12) tested on human MC4R (Homo sapiens).
Result: 23

Query: Checklist item: MC1R/MC4R cAMP EC50 ratio tested on human MC4R (Homo sapiens), entry CC(C)[C@@H]1NC(=O)[C@@H]2CSSC[C@H](NC(=O)[C@H](Cc3c[nH]c4ccccc34)NC(=O)[C@H](CCCNC(=N)N)NC(=O)[C@@H](Cc3ccccc3)NC(=O)[C@H](Cc3c[nH]cn3)NC1=O)C(=O)N[C@@H](C(C)C)C(=O)N[C@@H](Cc1c[nH]cn1)C(=O)N[C@H](Cc1ccccc1)C(=O)N[C@@H](CCCNC(=N)N)C(=O)N[C@@H](Cc1c[nH]c3ccccc13)C(=O)N2 [Chem. 36] (cyclo(CVH[dF]RWCVH[dF]RW); disulfide 1-7) , value?
Result: 26

* * *

# ASSAY TARGET: human MC4R (Homo sapiens)
# Construct: expressed in transfected cells
# PROTOCOL: Functional cAMP assay (CisBio HTRF) in BHK cells expressing human MC4R
# Format: cell-based
# STATED CONDITIONS: BHK cells expressing human MC4R; '>' = highest dose used with no response; read-out: MC4R cAMP EC50
Starred links: 1 amine or outer side, 2 acyl side, 3 side chain; linkers in the order of their positions; H or OH if unused. Positions of bridges follow the written chain, without caps; N, C: chain ends. Non-standard residues stand in square brackets, D forms with d. Residues, ends and D or L forms follow the SMILES beside them. d(hCys) = N[C@H](CCS)C(=O)O; X1 = C(CN[*:2])CS[*:1]; Aib = CC(C)(N)C(=O)O; βAla = NCCC(=O)O; Sar = CNCC(=O)O
RECORDED METRIC: pEC50
Schema: pEC50 number; meaning minus log10 of the concentration expressed in molar units.

Query: Using the record for N=C(N)NCCC[C@@H]1NC(=O)[C@@H](Cc2ccccc2)NC(=O)[C@H](Cc2c[nH]cn2)NC(=O)CCNC(=O)[C@@H]2CSSC[C@H](NC(=O)[C@H](Cc3c[nH]c4ccccc34)NC1=O)C(=O)NCCC(=O)N[C@@H](Cc1c[nH]cn1)C(=O)N[C@H](Cc1ccccc1)C(=O)N[C@@H](CCCNC(=N)N)C(=O)N[C@@H](Cc1c[nH]c3ccccc13)C(=O)N2 [Chem. 25] (cyclo(C[βAla]H[dF]RWC[βAla]H[dF]RW); disulfide 1-7) , report its pEC50.
Result: 10.70

Query: Data request, read-out pEC50, for C[C@@H]1NC(=O)[C@@H]2CSSC[C@H](NC(=O)[C@H](Cc3c[nH]c4ccccc34)NC(=O)[C@H](CCCCN)NC(=O)[C@H](CCCCN)NC(=O)[C@H](CCCCN)NC1=O)C(=O)NC(C)(C)C(=O)N[C@@H](Cc1c[nH]cn1)C(=O)N[C@H](Cc1ccccc1)C(=O)N[C@@H](Cc1c[nH]cn1)C(=O)N[C@@H](Cc1c[nH]c3ccccc13)C(=O)N2 [Chem. 61] (cyclo(AKKKWC[Aib]H[dF]HWC); disulfide 6-12)
Result: 9.51

Query: Find the recorded pEC50 belonging to CN1CC(=O)N[C@@H](Cc2c[nH]cn2)C(=O)N[C@H](Cc2ccccc2)C(=O)N[C@@H](CCCNC(=N)N)C(=O)N[C@@H](Cc2c[nH]c3ccccc23)C(=O)N[C@H]2CSSC[C@H](NC(=O)[C@H](Cc3c[nH]c4ccccc34)NC(=O)[C@H](CCCNC(=N)N)NC(=O)[C@@H](Cc3ccccc3)NC(=O)[C@H](Cc3c[nH]cn3)NC(=O)CN(C)C2=O)C1=O [Chem. 31] (cyclo(C[Sar]H[dF]RWC[Sar]H[dF]RW); disulfide 1-7) and report it.
Result: 9.54

Query: // pEC50 lookup, key: C[C@@H]1NC(=O)[C@@H]2CSSC(C)(C)[C@H](NC(=O)[C@H](Cc3c[nH]c4ccccc34)NC(=O)[C@H](CCCNC(=N)N)NC(=O)[C@@H](Cc3ccccc3)NC(=O)[C@H](Cc3c[nH]cn3)NC1=O)C(=O)N[C@@H](C)C(=O)N[C@@H](Cc1c[nH]cn1)C(=O)N[C@H](Cc1ccccc1)C(=O)N[C@@H](CCCNC(=N)N)C(=O)N[C@@H](Cc1c[nH]c3ccccc13)C(=O)N2
Result: 10.70

Query: Quick one: pEC50 for C[C@@H]1NC(=O)[C@@H]2CSSC[C@H](NC(=O)[C@H](Cc3c[nH]c4ccccc34)NC(=O)[C@H](CCCNC(N)=O)NC(=O)[C@@H](Cc3ccccc3)NC(=O)[C@H](Cc3c[nH]cn3)NC1=O)C(=O)N[C@@H](C)C(=O)N[C@@H](Cc1c[nH]cn1)C(=O)N[C@H](Cc1ccccc1)C(=O)N[C@@H](CCCNC(N)=O)C(=O)N[C@@H](Cc1c[nH]c3ccccc13)C(=O)N2 ?
Result: 9.89

Query: Item C[C@@H]1NC(=O)[C@@H]2CSCSC[C@H](NC(=O)[C@H](Cc3c[nH]c4ccccc34)NC(=O)[C@H](CCCNC(=N)N)NC(=O)[C@@H](Cc3ccccc3)NC(=O)[C@H](Cc3c[nH]cn3)NC1=O)C(=O)N[C@@H](C)C(=O)N[C@@H](Cc1c[nH]cn1)C(=O)N[C@H](Cc1ccccc1)C(=O)N[C@@H](CCCNC(=N)N)C(=O)N[C@@H](Cc1c[nH]c3ccccc13)C(=O)N2 has what recorded pEC50?
Result: 10.70

Query: Requested read-out: pEC50. Entry: CC(=O)N[C@@H](Cc1c[nH]cn1)C(=O)N[C@H](Cc1ccccc1)C(=O)N[C@@H](CCCNC(=N)N)C(=O)N[C@@H](Cc1c[nH]c2ccccc12)C(=O)NCC(=O)N[C@@H]1CCSSCCCNC(=O)CNC(=O)[C@H](Cc2c[nH]c3ccccc23)NC(=O)[C@H](CCCNC(=N)N)NC(=O)[C@@H](Cc2ccccc2)NC(=O)[C@H](Cc2c[nH]cn2)NC1=O [Chem. 4] (Ac-H[dF]RWG[d(hCys)]H[dF]RWG; linker 6-C via X1)
Result: 10.05

Query: # pEC50 lookup, item C[C@@H]1NC(=O)[C@@H]2CSSC[C@H](NC(=O)[C@H](Cc3c[nH]c4ccccc34)NC(=O)[C@H](CCCCNC(=N)N)NC(=O)[C@@H](Cc3ccccc3)NC(=O)[C@H](Cc3c[nH]cn3)NC1=O)C(=O)N[C@@H](C)C(=O)N[C@@H](Cc1c[nH]cn1)C(=O)N[C@H](Cc1ccccc1)C(=O)N[C@@H](CCCCNC(=N)N)C(=O)N[C@@H](Cc1c[nH]c3ccccc13)C(=O)N2
Result: 10.70

Query: GET /values?readout=pEC50&item= N=C(N)NCCC[C@@H]1NC(=O)[C@@H](Cc2ccccc2)NC(=O)[C@H](Cc2c[nH]cn2)NC(=O)[C@@H]2CCCN2C(=O)[C@@H]2CSSC[C@H](NC(=O)[C@H](Cc3c[nH]c4ccccc34)NC1=O)C(=O)N1CCC[C@H]1C(=O)N[C@@H](Cc1c[nH]cn1)C(=O)N[C@H](Cc1ccccc1)C(=O)N[C@@H](CCCNC(=N)N)C(=O)N[C@@H](Cc1c[nH]c3ccccc13)C(=O)N2 [Chem. 30] (cyclo(CPH[dF]RWCPH[dF]RW); disulfide 1-7)
Result: 10.52

Query: # pEC50 lookup, item C[C@@H]1NC(=O)[C@@H]2CSSC[C@H](NC(=O)[C@H](Cc3c[nH]c4ccccc34)NC(=O)[C@H](CCCN)NC(=O)[C@@H](Cc3ccccc3)NC(=O)[C@H](Cc3c[nH]cn3)NC1=O)C(=O)N[C@@H](C)C(=O)N[C@@H](Cc1c[nH]cn1)C(=O)N[C@H](Cc1ccccc1)C(=O)N[C@@H](CCCN)C(=O)N[C@@H](Cc1c[nH]c3ccccc13)C(=O)N2
Result: 9.68

Query: Request the reported pEC50 associated with C[C@@H]1NC(=O)[C@@H]2CSSC[C@H](NC(=O)[C@H](Cc3c[nH]c4ccccc34)NC(=O)[C@H](CCCNC(=N)N)NC(=O)[C@@H](Cc3ccccc3)NC(=O)[C@H](Cc3c[nH]cn3)NC1=O)C(=O)N[C@@H](C)C(=O)N[C@@H](Cc1ccc(O)cc1)C(=O)N[C@@H](Cc1ccccc1)C(=O)N[C@@H](CCCCN)C(=O)N[C@@H](Cc1c[nH]c3ccccc13)C(=O)N2 [Chem. 80] (cyclo(AH[dF]RWCAYFKWC); disulfide 6-12)
Result: 9.82
